In what follows, each item is paired with its pIC50 for human Bub1 (Homo sapiens, UniProt O43683).
pIC50: −log10 of the molar value.

{"compound.structure": "Cc1noc(Nc2cnc(C(F)(F)F)cn2)c1C(=O)Nc1ccc(F)c(F)c1", "measure": "pIC50", "measured.result": "< 4.70"}

# context switch: different compound, same pIC50
-- ask Find pIC50 (human Bub1 (Homo sapiens, UniProt O43683)) for the entry `Cc1noc(Nc2cnc(C(F)(F)F)cn2)c1C(=O)Nc1ccc(OC[C@@H]2CCN(CC(F)(F)F)C2)nc1`
-- reply < 4.70

----------
Catalogue of IC50 readings, one per entry.
Tested on: HeLa cells
Test: Proliferation assay (crystal violet)
Format: cell-based
Details: Homo sapiens, 96 h, 4 days incubation, read-out: Inhibition of proliferation HeLa IC50
A bare number is not enough; add the unit after it.

{"compound.structure": "Cc1noc(Nc2cnc(C(F)(F)F)cn2)c1C(=O)Nc1ccc(OC[C@H]2CCN(CCC(F)(F)F)C2)nc1", "IC50": "3.1 µM"}
{"compound.structure": "Cc1noc(Nc2cnc(C(F)(F)F)cn2)c1C(=O)Nc1ccc(OC[C@H]2CCN(CC(F)F)C2)nc1", "IC50": "4 µM"}
{"compound.structure": "Cc1noc(Nc2cnc(C(F)(F)F)cn2)c1C(=O)Nc1ccc(OC[C@@H]2CCN(CC(F)(F)F)C2)nc1", "IC50": "2.8 µM"}
{"compound.structure": "Cc1noc(Nc2cnc(C(F)(F)F)cn2)c1C(=O)Nc1ccc(OC[C@H]2CCN(CC(F)(F)F)C2)nc1", "IC50": "1.9 µM"}
{"compound.structure": "Cc1noc(Nc2cnc(C(=O)NC3CCN(CC(F)F)CC3)cn2)c1C(=O)Nc1ccc(F)c(F)c1", "IC50": "3.4 µM"}

-- ask Can you look up the measured IC50 of `COc1ccc(NC(=O)c2c(C)noc2Nc2cnc(C(F)(F)F)cn2)cn1` for me?
-- reply 2.7 µM

-- ask Can you look up the measured IC50 of `Cc1noc(Nc2cnc(C(F)(F)F)cn2)c1C(=O)Nc1ccc(OC[C@@H]2CCN(CCC(F)(F)F)C2)nc1` for me?
-- reply 3.3 µM

----------
Tested on: spindle assembly checkpoint (phosphorylated histone H3 on serine 10) in HeLa cells
Test: SAC-Formation - Paclitaxel-Induced Assay
Format: cell-based
Conditions: Homo sapiens, paclitaxel 0.05 μM, 24 h incubation
measure: pIC50
Expect pIC50 as a plain number equal to -log10 of the molar concentration.

Observe how each entry below is paired with its result.
{"compound.structure": "Cc1noc(Nc2cnc(C(F)(F)F)cn2)c1C(=O)Nc1ccc(OC2CCN(CCC(F)(F)F)CC2)nc1", "pIC50": 6.12}
{"compound.structure": "Cc1noc(Nc2cnc(C(=O)NC3CCN(CC(F)F)CC3)cn2)c1C(=O)Nc1ccc(F)c(F)c1", "pIC50": 6.20}

# context switch: different compound, same pIC50
-- ask Can you look up the measured pIC50 of `Cc1noc(Nc2cnc(C(F)(F)F)cn2)c1C(=O)Nc1ccc(F)c(F)c1` for me?
-- reply 6.74

----------
Target: human kinase Mps-1 (Homo sapiens, UniProt P33981)
Construct: human full length recombinant Mps-1 kinase; GST (N)
Sequence (P33981 whole entry): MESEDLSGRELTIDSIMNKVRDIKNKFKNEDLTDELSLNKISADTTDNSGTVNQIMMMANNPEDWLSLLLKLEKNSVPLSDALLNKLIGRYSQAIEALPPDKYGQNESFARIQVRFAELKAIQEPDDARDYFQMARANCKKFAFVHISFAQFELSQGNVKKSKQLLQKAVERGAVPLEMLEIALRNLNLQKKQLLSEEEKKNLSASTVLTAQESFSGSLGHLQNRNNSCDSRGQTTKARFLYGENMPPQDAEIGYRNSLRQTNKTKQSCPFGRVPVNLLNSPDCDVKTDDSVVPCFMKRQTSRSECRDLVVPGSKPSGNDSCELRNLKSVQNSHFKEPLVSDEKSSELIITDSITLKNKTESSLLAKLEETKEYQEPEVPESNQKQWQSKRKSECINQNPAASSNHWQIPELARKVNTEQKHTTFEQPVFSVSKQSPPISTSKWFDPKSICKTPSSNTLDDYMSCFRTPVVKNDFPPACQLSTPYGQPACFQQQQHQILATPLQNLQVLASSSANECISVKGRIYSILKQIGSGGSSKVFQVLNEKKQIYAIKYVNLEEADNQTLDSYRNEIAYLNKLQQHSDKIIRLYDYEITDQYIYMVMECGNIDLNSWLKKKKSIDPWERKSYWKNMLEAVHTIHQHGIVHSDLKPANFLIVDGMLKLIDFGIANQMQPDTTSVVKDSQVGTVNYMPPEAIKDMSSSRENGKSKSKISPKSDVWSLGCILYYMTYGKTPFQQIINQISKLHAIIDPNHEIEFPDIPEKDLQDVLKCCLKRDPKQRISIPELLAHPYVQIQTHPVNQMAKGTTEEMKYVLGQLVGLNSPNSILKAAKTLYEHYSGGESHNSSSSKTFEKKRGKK
Assay: Mps-1 kinase assay (TR-FRET)
Conditions: 10 μM ATP; read-out: Mps1 avg (IC50)
measure: IC50
A bare number is not enough; add the unit after it.

-- ask Can you look up the measured IC50 of `Cc1noc(Nc2cnc(C(=O)NC3CCN(CC(F)F)CC3)cn2)c1C(=O)Nc1ccc(F)c(F)c1` for me?
-- reply 16 µM

----------
Target: CDK2/CycE (Homo sapiens)
Construct: GST; purchased ProQinase GmbH (Freiburg, Germany); host or cells: insect cells (Sf9)
Assay: CDK2/CycE kinase assay (TR-FRET)
Format: biochemical
Settings: 10 μM ATP
Protocol: CDK2/CycE-inhibitory activity of compounds of the present invention was quantified employing the CDK2/CycE TR-FRET assay as described in the following paragraphs. […] The resulting mixture was incubated 1 h at 22° C. to allow the formation of complex between the phosphorylated biotinylated peptide and the detection reagents. Subsequently the amount of phosphorylated substrate was evaluated by measurement of the resonance energy transfer from the Eu-chelate to the streptavidine-XL. […]
pIC50: −log10 of the molar value.
Catalogue of pIC50 readings, one per entry.

{"compound.structure": "Cc1noc(Nc2cnc(C(=O)NC3CCN(CC(F)F)CC3)cn2)c1C(=O)Nc1ccc(F)c(F)c1", "pIC50": "< 4.70"}

-- ask Can you look up the measured pIC50 of `Cc1noc(Nc2cnc(C(F)(F)F)cn2)c1C(=O)Nc1ccc(OC2CCN(CCC(F)(F)F)CC2)nc1` for me?
-- reply < 4.70

-- ask Can you look up the measured pIC50 of `Cc1noc(Nc2cnc(C(F)(F)F)cn2)c1C(=O)Nc1ccc(F)c(F)c1` for me?
-- reply < 4.70

----------
Catalogue of IC50 readings, one per entry.
Tested on: HeLa cells
Test: Proliferation assay (crystal violet)
Assay type: cell-based
Details: Homo sapiens, 96 h, 4 days incubation, read-out: Inhibition of proliferation HeLa IC50
Experimental: Cultivated tumor cells (cells were ordered from ATCC, except HeLa-MaTu and HeLa-MaTu-ADR, which were ordered from EPO-GmbH, Berlin) were plated at a density of 1000 to 5000 cells/well, depending on the growth rate of the respective cell line, in a 96-well multititer plate in 200 μL of their respective growth medium supplemented 10% fetal calf serum. […] Absorption was determined by photometry at a wavelength of 595 nm. […] The IC50 values were determined by means of a 4 parameter fit.
Quick reminder: number only, in nM, skip the unit.

{"compound": "Cc1noc(Nc2cnc(C(F)(F)F)cn2)c1C(=O)Nc1ccc(OC2CCN(CCC(F)(F)F)CC2)nc1 [Example 1a]", "IC50 (nM)": 1900}
{"compound": "Cc1noc(Nc2cnc(C(F)(F)F)cn2)c1C(=O)Nc1ccc(OC[C@@H]2CCN(CC(F)F)C2)nc1 [Example 3a]", "IC50 (nM)": 3400}

-- ask Find IC50 (HeLa cells) for the entry Cc1noc(Nc2cnc(C(F)(F)F)cn2)c1C(=O)Nc1ccc(F)c(F)c1 [Example 1c]
-- reply 940
